The origin of these recorded values is patent US20070293475A1.

Catalogue of compounds with associated Emax
- Assay system: human serotonin receptor clone 5-HT2B (Homo sapiens, UniProt P41595)
- Construct: expressed in transfected cells; host or cells: CHO-K1 cells stably expressing aequorin and Galpha16
- Sequence (P41595 whole entry): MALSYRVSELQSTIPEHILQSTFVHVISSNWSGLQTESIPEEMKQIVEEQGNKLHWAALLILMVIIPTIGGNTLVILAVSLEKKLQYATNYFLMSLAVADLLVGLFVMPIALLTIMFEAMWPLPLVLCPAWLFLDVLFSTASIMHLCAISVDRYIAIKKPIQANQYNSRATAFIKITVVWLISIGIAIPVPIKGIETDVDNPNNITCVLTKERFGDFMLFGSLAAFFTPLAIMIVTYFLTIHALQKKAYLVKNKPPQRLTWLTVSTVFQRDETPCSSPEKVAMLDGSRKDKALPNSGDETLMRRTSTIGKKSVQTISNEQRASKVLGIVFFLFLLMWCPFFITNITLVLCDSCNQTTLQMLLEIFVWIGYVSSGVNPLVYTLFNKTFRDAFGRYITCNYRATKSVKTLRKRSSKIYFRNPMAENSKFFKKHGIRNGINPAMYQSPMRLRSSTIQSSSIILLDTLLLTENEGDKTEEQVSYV
- Assay info: h5-HT2 functional assay, CHO-K1 aequorin luminescence (5-HT2B)
- Format: cell-based
- Measurement setup: CHO-K1; relative to the response of α-methyl-5-HT; read-out: h5-HT 2B (Emax)
API: value field is a number in %; no unit string.

Completed entries (count: 4):
INSERT INTO measurements (smiles, readout_units, endpoint_value) VALUES
  ('COc1cccc(Cc2ccc3c(c2)CCNCC3)c1', '%', 87),
  ('COc1cccc(COc2cc3c(cc2C)CCNCC3)c1', '%', 63),
  ('COc1cccc(OCc2ccc3c(c2)CCNCC3)c1', '%', 61),
  ('COc1cc(Cc2ccc3c(c2)CCNCC3)cc(OC)c1', '%', 6);

Now, please, on to the next compound.
The compound listed as Oc1cccc(Cc2ccc3c(c2)CCNCC3)c1 has a reported Emax of 35

====

Catalogue of compounds with associated Emax
- Assay system: human serotonin receptor clone 5-HT2A (Homo sapiens, UniProt P28223)
- Construct: expressed in transfected cells; host or cells: CHO-K1 cells stably expressing aequorin and Galpha16
- Sequence (P28223 whole entry): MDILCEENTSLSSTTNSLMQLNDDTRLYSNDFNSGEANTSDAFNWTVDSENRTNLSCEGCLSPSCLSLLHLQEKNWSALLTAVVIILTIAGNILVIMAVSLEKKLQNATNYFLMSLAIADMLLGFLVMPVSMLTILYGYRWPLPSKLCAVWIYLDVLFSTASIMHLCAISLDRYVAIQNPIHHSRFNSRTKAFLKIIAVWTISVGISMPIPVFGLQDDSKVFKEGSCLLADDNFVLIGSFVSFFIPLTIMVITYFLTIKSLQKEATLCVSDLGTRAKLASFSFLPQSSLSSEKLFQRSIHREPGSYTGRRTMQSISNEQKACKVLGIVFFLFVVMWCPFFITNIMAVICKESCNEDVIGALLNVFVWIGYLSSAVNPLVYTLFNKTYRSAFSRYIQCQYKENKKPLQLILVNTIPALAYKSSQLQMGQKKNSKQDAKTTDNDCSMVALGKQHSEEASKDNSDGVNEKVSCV
- Assay info: h5-HT2 functional assay, CHO-K1 aequorin luminescence (5-HT2A)
- Type: cell-based
- Measurement setup: CHO-K1; relative to the response of α-methyl-5-HT; read-out: h5-HT 2A (Emax)
I'd appreciate it if you wrote the number followed by its unit.

INSERT INTO results (smiles, assay_system, endpoint_value) VALUES
  ('COc1cccc(COc2cc3c(cc2C)CCNCC3)c1', 'human serotonin receptor clone 5-HT2A (Homo sapiens, UniProt P28223)', '102%'),
  ('Oc1cccc(Cc2ccc3c(c2)CCNCC3)c1', 'human serotonin receptor clone 5-HT2A (Homo sapiens, UniProt P28223)', '98%'),
  ('COc1cccc(OCc2ccc3c(c2)CCNCC3)c1', 'human serotonin receptor clone 5-HT2A (Homo sapiens, UniProt P28223)', '105%'),
  ('COc1cccc(Cc2ccc3c(c2)CCNCC3)c1', 'human serotonin receptor clone 5-HT2A (Homo sapiens, UniProt P28223)', '102%');

Now, please, on to the next compound.
The compound listed as COc1cc(Cc2ccc3c(c2)CCNCC3)cc(OC)c1 has a reported Emax of 104%

====

- Assay system: human serotonin receptor clone 5-HT2B (Homo sapiens, UniProt P41595)
- Assay info: h5-HT2 functional assay, CHO-K1 aequorin luminescence (5-HT2B)
- Measurement setup: CHO-K1 cells, aequorin, Gα16; read-out: h5-HT 2B EC50
Reported endpoint: EC50 (nM)
API: value field is a number in nM; no unit string.

Completed entries (count: 3):
INSERT INTO assay_data (molecule, endpoint_value) VALUES
  ('COc1cccc(COc2cc3c(cc2C)CCNCC3)c1 [Example 8]', 230),
  ('COc1cccc(OCc2ccc3c(c2)CCNCC3)c1 [Example 6]', 417),
  ('COc1cccc(Cc2ccc3c(c2)CCNCC3)c1 [Example 1]', 390);

Now, please, on to the next molecule.
The molecule listed as Oc1cccc(Cc2ccc3c(c2)CCNCC3)c1 [Example 2] has a reported EC50 of 1240
